System: S. pneumoniae PSSP CQI 201
ASSAY METHOD TEXT: Antibacterial activity (MIC)
Assay type: cell-based, Streptococcus pneumoniae
CONDITIONS USED: Streptococcus pneumoniae; S. pneumoniae PSSP CQI 201; read-out: MIC
Starred links: 1 amine or outer side, 2 acyl side, 3 side chain; linkers in the order of their positions; H or OH if unused. Positions of bridges follow the written chain, without caps; N, C: chain ends. Non-standard residues stand in square brackets, D forms with d. Residues, ends and D or L forms follow the SMILES beside them. ξ: configuration not given here. *: point of attachment. X1 = O=C1C[C@@H](C(=O)[*:2])N([*:1])C[C@H]1CSCCNc1ccnc2cc(Cl)ccc12; NMePhe(4-NMe2) = CN[C@@H](Cc1ccc(N(C)C)cc1)C(=O)O; Picolinoyl(3-OH) = O=C(c1ncccc1O)*; ξPhg = NC(C(=O)O)c1ccccc1; dAbu = CC[C@@H](N)C(=O)O
Classify: Y when MIC is strictly less than 0.3 µg/mL; N when MIC is not.

Here are 7 compounds together with their reported answers.
CC[C@H]1OC(=O)[C@H](C)[C@@H](O[C@H]2C[C@@](C)(OC)[C@@H](O)[C@H](C)O2)[C@H](C)[C@@H](O[C@@H]2O[C@H](C)C[C@H](N(C)C)[C@H]2O)[C@](C)(O)C[C@@H](C)C(=O)[C@H](C)[C@@H](O)[C@]1(C)O [Erythromycin, reference compound] | Y
CN[C@H](CC(C)C)C(=O)N[C@H]1C(=O)N[C@@H](CC(N)=O)C(=O)N[C@H]2C(=O)N[C@H]3C(=O)N[C@H](C(=O)N[C@H](C(=O)O)c4cc(O)cc(O)c4-c4cc3ccc4O)[C@H](O)c3ccc(c(Cl)c3)Oc3cc2cc(c3OC2OC(CO)C(O)C(O)C2OC2CC(C)(NCCCCNc3ccnc4cc(Cl)ccc34)C(O)C(C)O2)Oc2ccc(cc2Cl)[C@H]1O (some centres unmarked) [PA 1158] | Y
CC[C@@H]1OC(=O)[C@H](C)[C@H](OC2CC(C)(OC)C(O)C(C)O2)[C@@H](C)[C@@H](OC2OC(C)CC(N(C)C)C2O)[C@](C)(O)C[C@@H](C)/C(=N\OCCCNc2ccnc3cc(Cl)ccc23)[C@@H](C)[C@H](O)[C@]1(C)O (some centres unmarked) [PA 1169] | Y
CN[C@H](CC(C)C)C(=O)N[C@H]1C(=O)N[C@@H](CC(N)=O)C(=O)N[C@H]2C(=O)N[C@H]3C(=O)N[C@H](C(=O)N[C@H](C(=O)O)c4cc(O)cc(O)c4-c4cc3ccc4O)[C@H](O)c3ccc(c(Cl)c3)Oc3cc2cc(c3OC2OC(CO)C(O)C(O)C2OC2CC(C)(NCCNc3ccnc4cc(Cl)ccc34)C(O)C(C)O2)Oc2ccc(cc2Cl)[C@H]1O (some centres unmarked) [PA 1159] | Y
O=C(CCNc1ccnc2cc(Cl)ccc12)NC[C@H]1CN(c2ccc(N3CCOCC3)c(F)c2)C(=O)O1 [PA 1185] | N
CC[C@H]1NC(=O)[C@@H](NC(=O)c2ncccc2O)[C@@H](C)OC(=O)C(c2ccccc2)NC(=O)[C@@H]2CC(=O)[C@H](CSCCNc3ccnc4cc(Cl)ccc34)CN2C(=O)[C@H](Cc2ccc(N(C)C)cc2)N(C)C(=O)[C@@H]2CCCN2C1=O (some centres unmarked) [PA 1182] ({Picolinoyl(3-OH)}-T[dAbu]P[NMePhe(4-NMe2)][X1][ξPhg]; ester 1-C) | N
CC(=O)NC[C@H]1CN(c2ccc(N3CCOCC3)c(F)c2)C(=O)O1 [Linezolid, reference compound] | N

Prompt line: Strictly below 0.3 µg/mL: is that where MIC of CN[C@H](CC(C)C)C(=O)N[C@H]1C(=O)N[C@@H](CC(N)=O)C(=O)N[C@H]2C(=O)N[C@H]3C(=O)N[C@H](C(=O)N[C@H](C(=O)O)c4cc(O)cc(O)c4-c4cc3ccc4O)[C@H](O)c3ccc(c(Cl)c3)Oc3cc2cc(c3OC2OC(CO)C(O)C(O)C2OC2CC(C)(NCc3ccc(OCCNc4ccnc5cc(Cl)ccc45)cc3)C(O)C(C)O2)Oc2ccc(cc2Cl)[C@H]1O (some centres unmarked) [PA 1157] sits?
Response line: Y

Data origin, for the record: patent US20070060558A1
